B1: H2-Kb / B15 (parent complex)
chain 1: QQQVRQSPQSLTVWEGETAILNCSYENSAFDYFPWYQQFPGEGPALLISILSVSDKKEDGRFTIFFNKREKKLSLHIADSQPGDSATYFCAASAASNNRLTLGKGTQVVVLP
chain 2: DSGVVQSPRHIIKEKGGRSVLTCIPISGHSNVVWYQQTLGKELKFLIQHYEKVERDKGFLPSRFSVQQFDDYHSEMNMSALELEDSAMYFCASSRRADAEQFFGPGTRLTVL
chain 3: not shown
chain 4: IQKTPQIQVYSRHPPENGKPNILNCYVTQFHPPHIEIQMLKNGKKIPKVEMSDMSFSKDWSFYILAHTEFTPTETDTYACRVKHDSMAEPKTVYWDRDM
chain 5: SIINFEKL

Variants of: B1
experiment: % of reporter cells activated (NFAT-GFP), raw; further: test concentration or dose not given here
Note to self: values exactly at 0.5 are t. So ratio to parent at or above 0.5 is t, below is f.

Textbook exercise: given the entry chain 5 K7F , state whether its ratio to parent is greater than or equal to 0.5.
f

Could you please find out whether chain 5 L8T has ratio to parent that meets 0.5 or exceeds it?
t

State whether the measured ratio to parent reaches 0.5, counting equality as reaching it, for chain 5 K7Q
f

ratio to parent >= 0.5 for chain 5 I2K ?
t

Could you verify whether the entry chain 5 F5H shows ratio to parent of no less than 0.5?
t

Hi team, for chain 5 I2Y , is the recorded ratio to parent at or above 0.5?
t

Threshold query (ratio to parent >= 0.5) on chain 5 S1N
f

Hi team, for chain 5 N4R , is the recorded ratio to parent at or above 0.5?
f

Reported ratio to parent reaches at least 0.5 for chain 5 F5E ?
t

Is ratio to parent at least 0.5? Consider chain 5 S1C
t
